# procedure-details: Caco-2 permeability of ADC payload
# Format: in vitro ADME
# condition-notes: human, Caco-2, unconjugated payload; apical to basolateral, 2 hours; read-out: Permeability Mean Caco-2 A-B Perm (10e−6 cm/s)
Checkbox rule: Papp A→B at 2 h, 10 NM lower than 1 ×10⁻⁶ cm/s = Criterion met; Papp A→B at 2 h, 10 NM not lower than 1 ×10⁻⁶ cm/s = Criterion not met.

# mol-smiles, assigned-label
rows = [
    ("CC[C@H](O)[C@@H](C)[C@H]1O[C@@H]1C[C@H](C)/C=C/C=C(\\C)[C@H]1OC(=O)C[C@H](O)CC[C@@](C)(OC(C)=O)[C@@H](OC(=O)N2CCNCC2)/C=C/[C@@H]1C", "Criterion not met"),
    ("CC(=O)N1CCC(n2nnc3c(F)cc(/C=C(\\C)[C@H]4OC(=O)C[C@H](O)CC[C@H](C)[C@@H](OC(=O)N5CCNCC5)/C=C/[C@@H]4C)cc32)CC1", "Criterion met"),
    ("CC[C@H](O)[C@@H](C)[C@H]1O[C@@H]1C[C@H](C)/C=C/C=C(\\C)[C@H]1OC(=O)C[C@H](O)CC[C@@](C)(OC)[C@@H](OC(=O)N2CCNCC2)/C=C/[C@@H]1C", "Criterion not met"),
    ("CC[C@H](O)[C@@H](C)[C@H]1O[C@@H]1C[C@H](C)/C=C/C=C(\\C)[C@H]1OC(=O)C[C@H](O)CC[C@@](C)(OC(=O)N2CCNCC2)[C@@H](OC(C)=O)/C=C/[C@@H]1C", "Criterion met"),
    ("CC[C@H](O)[C@@H](C)[C@H]1O[C@@H]1C[C@@](C)(O)/C=C/C=C(\\C)[C@H]1OC(=O)C[C@H](O)CC[C@@](C)(OC)[C@@H](OC(=O)N(C)CCNC)/C=C/[C@@H]1C", "Criterion met"),
]

* * *

# Tested on: NCIH1650.1
# procedure-details: Payload cellular potency CTGlo-ATS 72 h, NCIH1650.1
# Type: cell-based
# condition-notes: read-out: CTGlo-ATS GMean GI50 (nM) 72 h NCIH1650.1; cell line #1, 72 h; corresponding free payload
Form field: GI50 (one value per entry).
property-measured: GI50 (nM)

# compound, property-measured, reported-result
data = [
    ("CC[C@H](O)[C@@H](C)C1OC1C[C@@](C)(O)/C=C/C=C(\\C)[C@H]1OC(=O)C[C@H](O)CC[C@@](C)(OC)[C@@H](OC(=O)N2CCNCC2)/C=C/[C@@H]1C (stereo in doubt) [D1]", "GI50", 12.1),
    ("CC[C@H](O)[C@@H](C)C1OC1C[C@@](C)(O)/C=C/C=C(\\C)[C@H]1OC(=O)C[C@H](O)CC[C@@](C)(OC(C)=O)[C@@H](OC(=O)N2CCNCC2)/C=C/[C@@H]1C (stereo in doubt) [D4]", "GI50", 11.9),
    ("CC[C@H](O)[C@@H](C)[C@H]1O[C@@H]1C[C@@](C)(O)/C=C/C=C(\\C)[C@H]1OC(=O)C[C@H](O)CC[C@@](C)(O)[C@@H](OC(=O)N2CCNCC2)/C=C/[C@@H]1C [D12]", "GI50", 258),
    ("CC[C@H](O)[C@@H](C)[C@H]1O[C@@H]1C[C@@](C)(O)/C=C/C=C(\\C)[C@H]1OC(=O)C[C@H](O)CC[C@@](C)(OC(=O)N2CCNCC2)[C@@H](OC(C)=O)/C=C/[C@@H]1C [D8]", "GI50", 19.1),
]
